inhibition at 10 µM values for the molecules below.
assayed.target: human B1R receptor (Homo sapiens, UniProt P46663)
Construct: host or cells: CHO K1 cells (Chinese hamster ovary), stably transfected
Sequence (P46663 whole entry): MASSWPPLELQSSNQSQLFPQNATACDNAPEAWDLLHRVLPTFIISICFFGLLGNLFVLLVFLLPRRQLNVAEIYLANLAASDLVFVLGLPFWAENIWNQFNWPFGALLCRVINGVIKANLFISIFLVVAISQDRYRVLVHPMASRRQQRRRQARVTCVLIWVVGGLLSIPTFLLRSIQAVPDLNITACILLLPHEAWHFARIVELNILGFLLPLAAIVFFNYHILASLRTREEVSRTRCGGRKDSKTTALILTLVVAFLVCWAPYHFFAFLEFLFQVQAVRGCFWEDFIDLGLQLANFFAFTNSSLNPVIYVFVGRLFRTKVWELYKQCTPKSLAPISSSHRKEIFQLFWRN
assay.info: Functional study on the bradykinin receptor 1 (B1R), FLIPR Ca2+ assay, hB1R cells
Type: cell-based
test.conditions: CHO-K1, test substance 10 μM, agonist Lys-Des-Arg9-bradykinin 0.5 nM, % inhibition compared with the maximum achievable inhibition, read-out: B1R Antagonism, human [10 μM] % Inhibition
A number alone suffices; assume %.

Example molecules with recorded inhibition at 10 µM:
molecule O=C(COCC1CCCCN1S(=O)(=O)c1ccc(Br)cc1)N1CCC(CCN2CCCC2)CC1 (stereo not shown) , inhibition at 10 µM observed: 50.6

molecule COc1cc(C)c(S(=O)(=O)N2CCCC2COCC(=O)NCc2ccc(N3CCCCC3)cc2)c(C)c1 (stereo not shown) , inhibition at 10 µM observed: 59.9

Next:
molecule COc1cc(C)c(S(=O)(=O)N2CCCC2COCC(=O)N2CCN(C3CCN(C)CC3)CC2)c(C)c1 (stereo not shown) , inhibition at 10 µM observed: 106

molecule COc1cc(C)c(S(=O)(=O)N2CCCC2COCC(=O)NCCCCN2CCCC2)c(C)c1 (stereo not shown) , inhibition at 10 µM observed: 66.4

molecule COc1cc(C)c(S(=O)(=O)N2CCCC2COCC(=O)N(Cc2ccccc2)c2cc(C)ccn2)c(C)c1 (stereo not shown) , inhibition at 10 µM observed: 97.4

molecule COc1ccc(S(=O)(=O)N2CCCCC2COCC(=O)Nc2ccc(N3CCOCC3)c3nonc23)cc1 (stereo not shown) , inhibition at 10 µM observed: 12.1

molecule Cc1ccc2[nH]c(C3CCN(C(=O)COCC4CCCCN4S(=O)(=O)c4c(Cl)cccc4Cl)CC3)nc2c1 (stereo not shown) , inhibition at 10 µM observed: 101

###

inhibition at 10 µM values for the compounds below.
assayed.target: human B1R receptor (Homo sapiens, UniProt P46663)
Construct: host or cells: CHO K1 cells (Chinese hamster ovary), stably transfected
assay.info: Functional study on the bradykinin receptor 1 (B1R), FLIPR Ca2+ assay, hB1R cells
Type: cell-based
test.conditions: CHO-K1, test substance 10 μM, agonist Lys-Des-Arg9-bradykinin 0.5 nM, % inhibition compared with the maximum achievable inhibition, read-out: B1R Antagonism, human [10 μM] % Inhibition
Structures can show the parent of a compound that is named as a salt.
Could you give the number and then its unit, please?

Example compounds with recorded inhibition at 10 µM:
compound COc1cc(C)c(S(=O)(=O)N2CCCCC2COCC(=O)Nc2cccnc2N2CCOCC2)c(C)c1 (stereo not drawn) , inhibition at 10 µM observed: 12.6%

compound COc1cc(C)c(S(=O)(=O)N2CCCC2COCC(=O)N(C)C(CN2CCN(C)CC2)c2ccccc2)c(C)c1 (stereo not drawn) , inhibition at 10 µM observed: 95%

compound CCOCCN1CCN(C(=O)COCC2Cc3ccccc3CN2S(=O)(=O)c2c(C)cc(C)cc2C)CC1 (stereo not drawn) , inhibition at 10 µM observed: 69.9%

compound COc1cc(C)c(S(=O)(=O)N2CCCCC2COCC(=O)NCCCN2CCCCC2)c(C)c1 (stereo not drawn) , inhibition at 10 µM observed: 99.9%

compound COc1cc(C)c(S(=O)(=O)N2CCCCC2COCC(=O)N(C)CCc2ccncc2)c(C)c1 (stereo not drawn) , inhibition at 10 µM observed: 94.7%

Next:
compound COc1cc(C)c(S(=O)(=O)N2CCCCC2COCC(=O)Nc2cc(-c3cccc(F)c3)[nH]n2)c(C)c1 (stereo not drawn) , inhibition at 10 µM observed: 49.2%

compound COc1cc(C)c(S(=O)(=O)N2CCCC2COCC(=O)N2CCN(Cc3ccccc3F)CC2)c(C)c1 (stereo not drawn) , inhibition at 10 µM observed: 92.8%

compound Cc1ccccc1S(=O)(=O)N1CCCCC1COCC(=O)N1CCN(C2CCN(C)CC2)CC1 (stereo not drawn) [Example 159, dihydrochloride] , inhibition at 10 µM observed: 99.2%

compound COc1cc(C)c(S(=O)(=O)N2CCCCC2COCC(=O)Nc2ccc(CCc3nc4ccccc4n3C)cc2)c(C)c1 (stereo not drawn) , inhibition at 10 µM observed: 96.2%

compound O=C(COCC1CCCCN1S(=O)(=O)c1c(Cl)cccc1Cl)N1CCN(c2nc3ccccc3s2)CC1 (stereo not drawn) , inhibition at 10 µM observed: 54.1%

compound O=C(COCC1CCCCN1S(=O)(=O)c1cccc(Br)c1)N1CCC(CCN2CCCC2)CC1 (stereo not drawn) , inhibition at 10 µM observed: 76.3%

compound COc1cc(C)c(S(=O)(=O)N2Cc3ccccc3C[C@H]2COCC(=O)N2CCN(C3CCN(C)CC3)CC2)c(C)c1 , inhibition at 10 µM observed: 102%

compound COc1cc(C)c(S(=O)(=O)N2CCCC2COCC(=O)N2CCC(CCN3CCCC3)CC2)c(C)c1 (stereo not drawn) , inhibition at 10 µM observed: 107%

compound COc1cc(C)c(S(=O)(=O)N2CCCCC2COCC(=O)Nc2cc(C)[nH]n2)c(C)c1 (stereo not drawn) , inhibition at 10 µM observed: 48.4%

compound O=C(COCC1CCCCN1S(=O)(=O)c1c(Cl)cccc1Cl)N1CCN(c2ccc(C(F)(F)F)cn2)CC1 (stereo not drawn) , inhibition at 10 µM observed: 75.6%

compound COc1cc(C)c(S(=O)(=O)N2CCCCC2COCC(=O)Nc2cccc(CN3CCCCC3)c2)c(C)c1 (stereo not drawn) , inhibition at 10 µM observed: 101%

compound COc1cc(C)c(S(=O)(=O)N2CCCCC2COCC(=O)NCCN2CCN(C)CC2)c(C)c1 (stereo not drawn) , inhibition at 10 µM observed: 95.6%

compound COc1cc(C)c(S(=O)(=O)N2CCCC2COCC(=O)Nc2ccc(N3CCN(C)CC3)cc2)c(C)c1 (stereo not drawn) , inhibition at 10 µM observed: 106%

compound CN1CCN(C(=O)COCC2CCCCN2S(=O)(=O)c2c(Cl)cccc2Cl)C(c2ccccc2)C1 (stereo not drawn) , inhibition at 10 µM observed: 103%

compound COc1cc(C)c(S(=O)(=O)N2CCCC2COCC(=O)NCC(c2ccc(C(F)(F)F)cc2)N2CCCC2)c(C)c1 (stereo not drawn) , inhibition at 10 µM observed: 68.2%

compound COc1ccc2cc(S(=O)(=O)N3CCCCC3COCC(=O)N3CCN(C4CCN(C)CC4)CC3)ccc2c1 (stereo not drawn) , inhibition at 10 µM observed: 106%

compound CCN1CCN(c2ccc(NC(=O)COCC3CCCCN3S(=O)(=O)c3ccc(OC)cc3)cc2)CC1 (stereo not drawn) , inhibition at 10 µM observed: 62.5%

compound COc1cc(C)c(S(=O)(=O)N2CCCCC2COCC(=O)NCc2ccc(N(C)C)cc2)c(C)c1 (stereo not drawn) , inhibition at 10 µM observed: 17.3%

compound O=C(COCC1CCCCN1S(=O)(=O)c1c(Cl)cccc1Cl)N1CCN(Cc2ccc(Cl)c(Cl)c2)CC1 (stereo not drawn) , inhibition at 10 µM observed: 98.6%

compound Cc1cc(S(=O)(=O)N2CCCCC2COCC(=O)N2CCN(C3CCN(C)CC3)CC2)c(C)cc1Cl (stereo not drawn) [Example 114, dihydrochloride] , inhibition at 10 µM observed: 102%

compound CN(C)CCCN1CCN(C(=O)COCC2CCCN2S(=O)(=O)c2c(Cl)cc(C(F)(F)F)cc2Cl)CC1 (stereo not drawn) , inhibition at 10 µM observed: 90%

compound COc1cc(C)c(S(=O)(=O)N2CCCC2COCC(=O)NCC(c2ccc(C(F)(F)F)cc2)N(C)C)c(C)c1 (stereo not drawn) , inhibition at 10 µM observed: 30.7%

compound Cc1ccc(CN2CCN(C(=O)COCC3CCCN3S(=O)(=O)c3c(Cl)cccc3Cl)CC2)cc1 (stereo not drawn) , inhibition at 10 µM observed: 96.7%

compound COc1cc(C)c(S(=O)(=O)N2CCCC2COCC(=O)N2CCC(c3nc4cc(C)ccc4[nH]3)CC2)c(C)c1 (stereo not drawn) , inhibition at 10 µM observed: 96.7%

compound O=C(COCC1CCCCN1S(=O)(=O)c1c(Cl)cccc1Cl)NC1CCN(Cc2ccccc2)CC1 (stereo not drawn) , inhibition at 10 µM observed: 101%
